These data points were gathered from paper PMC9811466.

Biological target: LAT1 in MCF-7 human breast cancer cells (Homo sapiens, UniProt Q01650)
Construct: wild-type MCF-7 human breast cancer cell line; endogenous in cells; host or cells: MCF-7 human breast cancer cells (wild type)
Sequence (Q01650 whole entry): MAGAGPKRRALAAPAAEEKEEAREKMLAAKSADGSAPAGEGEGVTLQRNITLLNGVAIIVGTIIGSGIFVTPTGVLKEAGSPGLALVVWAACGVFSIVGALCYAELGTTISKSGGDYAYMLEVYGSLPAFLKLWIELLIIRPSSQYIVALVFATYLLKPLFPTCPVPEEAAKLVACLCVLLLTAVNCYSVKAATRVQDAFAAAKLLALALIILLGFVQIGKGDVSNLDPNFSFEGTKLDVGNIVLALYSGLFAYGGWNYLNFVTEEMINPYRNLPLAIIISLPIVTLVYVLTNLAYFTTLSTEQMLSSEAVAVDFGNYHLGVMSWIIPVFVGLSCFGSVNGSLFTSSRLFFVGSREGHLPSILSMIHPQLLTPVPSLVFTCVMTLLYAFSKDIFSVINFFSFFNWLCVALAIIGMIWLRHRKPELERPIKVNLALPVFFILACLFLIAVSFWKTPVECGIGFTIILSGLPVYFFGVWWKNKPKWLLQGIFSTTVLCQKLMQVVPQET
Sequence (P08195 102-630 partner): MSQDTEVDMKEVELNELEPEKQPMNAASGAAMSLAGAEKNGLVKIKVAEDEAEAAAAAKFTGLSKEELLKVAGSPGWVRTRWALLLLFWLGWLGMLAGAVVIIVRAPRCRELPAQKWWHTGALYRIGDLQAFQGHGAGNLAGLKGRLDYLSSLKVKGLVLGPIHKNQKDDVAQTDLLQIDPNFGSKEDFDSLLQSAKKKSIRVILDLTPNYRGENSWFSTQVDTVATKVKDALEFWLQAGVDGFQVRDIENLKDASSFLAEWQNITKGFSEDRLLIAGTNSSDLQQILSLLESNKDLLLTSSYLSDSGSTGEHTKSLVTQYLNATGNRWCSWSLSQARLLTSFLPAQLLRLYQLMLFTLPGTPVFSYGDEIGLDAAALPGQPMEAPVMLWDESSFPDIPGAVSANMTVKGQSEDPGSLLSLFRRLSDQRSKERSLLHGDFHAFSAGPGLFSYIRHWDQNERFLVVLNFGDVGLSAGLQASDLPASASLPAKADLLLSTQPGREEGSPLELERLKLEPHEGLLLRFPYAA
Experiment: cis-inhibition of [14C]-L-leucine uptake in MCF-7 cells
Assay type: cell-based
Conditions: MCF7, MCF-7 cells; 50 μM compound
Description: Cells were cultured in DMEM (Gibco, ThermoFisher Scientific, Waltham, MA, USA) supplemented with L-glutamine (2 mM; ThermoFisher Scientific, Waltham, MA, USA), heat-inactivated fetal bovine serum (10%; Gibco, ThermoFisher Scientific, Waltham, MA, USA), penicillin (50 U/mL)-streptomycin (50 μg/mL) solution (ThermoFisher Scientific, Waltham, MA, USA), and hygromycin B solution (100 μg/mL) for transfected cells. […]
Could you label it Criterion met if measured inhibition at 50 µM is 80% or higher, and Criterion not met otherwise?

Compound	Group
CCCN(CCC)S(=O)(=O)c1ccc(C(=O)Nc2cccc(C[C@H](N)C(=O)O)c2)cc1 [Compound 10]	Criterion not met
N[C@@H](Cc1cccc(NC(=O)c2ccccc2O)c1)C(=O)O [Compound 1]	Criterion not met
CC(C(=O)Oc1cccc(C[C@H](N)C(=O)O)c1)c1cccc(C(=O)c2ccccc2)c1 (stereo partly drawn) [Compound 8]	Criterion met
COc1ccc2cc(C(C)C(=O)Nc3cccc(C[C@H](N)C(=O)O)c3)ccc2c1 (stereo partly drawn) [Compound 12]	Criterion met
CNC(=O)COc1ccc(-c2c(C#N)c(NC(=O)c3cccc(C[C@H](N)C(=O)O)c3)n3c(nc4ccccc43)c2C#N)cc1 [Compound 6]	Criterion not met
CC(C(=O)Nc1cccc(C[C@H](N)C(=O)O)c1)c1cccc(C(=O)c2ccccc2)c1 (stereo partly drawn) [Compound 5]	Criterion met
CC(C(=O)Nc1cccc(C[C@H](N)C(=O)O)c1)c1ccc(-c2ccccc2)c(F)c1 (stereo partly drawn) [Compound 11]	Criterion met
CC(C)Cc1ccc(C(C)C(=O)Nc2cccc(C[C@H](N)C(=O)O)c2)cc1 (stereo partly drawn) [Compound 7]	Criterion not met
